Target: human PD-1 / PD-L1-Ig binding on Jurkat cell line over-expressing human PD-1 (Jurkat-PD-1) (Homo sapiens)
Construct: expressed in transfected cells; host or cells: Jurkat
Sequence (Q15116 25-288): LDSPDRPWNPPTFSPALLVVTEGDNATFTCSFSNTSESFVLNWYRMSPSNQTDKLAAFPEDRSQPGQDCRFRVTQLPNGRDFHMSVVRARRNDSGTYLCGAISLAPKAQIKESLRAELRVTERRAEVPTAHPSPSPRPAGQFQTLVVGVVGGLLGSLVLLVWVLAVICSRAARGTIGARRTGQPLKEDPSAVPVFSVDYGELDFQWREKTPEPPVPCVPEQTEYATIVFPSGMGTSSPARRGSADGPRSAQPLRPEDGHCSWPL
Assay: Jurkat-PD-1 Cell Binding High-Content Screening Assay (CBA)
Format: cell-based
Conditions: Jurkat-PD-1 cells, PE-labeled PD-L1-Ig 20 nM final; read-out: Jurkat HPD1_PDL1 IC50
pIC50: −log10 of the molar value. Where a SMILES comes first, the peptide text is derived from it. Bridges are numbered along the chain shown (N, C = ends). [ ]: non-standard residue; d: D form. Bip = N[C@@H](Cc1ccc(-c2ccccc2)cc1)C(=O)O; Dab = NCC[C@H](N)C(=O)O
Each entry below lists one item and its recorded pIC50 value.
measure name: pIC50

CCCC[C@H]1NC(=O)[C@H](CCCN)NC(=O)[C@H](C(C)C)NC(=O)[C@H](Cc2ccc(-c3ccccc3)cc2)NC(=O)[C@H](C(C)C)NC(=O)[C@H](Cc2c[nH]c3ccccc23)NC(=O)[C@H](CC(=O)O)NC(=O)[C@H](Cc2ccncc2)NC(=O)[C@H](CN)NC(=O)CSC[C@@H](C(=O)N[C@@H](C)C(N)=O)NC(=O)[C@H]([C@@H](C)O)NC(=O)[C@H](C(C)C)NC(=O)[C@H](CC2CCCCC2)NC(=O)[C@H](CCN)NC1=O: 7.46
CC(C)C[C@H]1NC(=O)[C@H](CCCN)NC(=O)[C@H](CCC(=O)O)NC(=O)[C@H](Cc2ccc(-c3ccccc3)cc2)NC(=O)[C@H](C(C)C)NC(=O)[C@H](Cc2cccc(Cl)c2)NC(=O)[C@H](CC(=O)O)NC(=O)[C@H](Cc2ccc(C(=O)O)cc2)NC(=O)[C@H](Cc2ccc(OCC(=O)O)cc2)NC(=O)CSC[C@@H](C(=O)N[C@@H](C)C(N)=O)NC(=O)[C@H]([C@@H](C)O)NC(=O)[C@H](C(C)C)NC(=O)[C@H](CC2CCCCC2)NC(=O)[C@H](CCN)NC1=O: 7.56
C#CC[C@H](NC(=O)[C@H](C)NC(=O)[C@@H]1CSCC(=O)N[C@@H](CN)C(=O)N[C@@H](Cc2ccc(OCC(=O)O)cc2)C(=O)N[C@@H](CC(=O)O)C(=O)N[C@@H](Cc2cccc(C)c2)C(=O)N[C@@H](C(C)C)C(=O)N[C@@H](Cc2ccc(-c3ccccc3)cc2)C(=O)N[C@@H](CCCNC(N)=O)C(=O)N[C@@H](CCCN)C(=O)N[C@H](CC(C)C)C(=O)N[C@@H](CCN)C(=O)N[C@@H](CC2CCCCC2)C(=O)N[C@@H](C(C)C)C(=O)N[C@@H]([C@@H](C)O)C(=O)N1)C(=O)O [Compound 2259]: 7.35
CC(C)C[C@@H]1NC(=O)[C@H](CCN)NC(=O)[C@@H](CC(C)C)NC(=O)[C@H](CC(C)C)NC(=O)[C@H](C(C)C)NC(=O)[C@H](Cc2ccc(-c3ccccc3)cc2)NC(=O)[C@H](C(C)C)NC(=O)[C@H](Cc2c[nH]c3ccccc23)NC(=O)[C@H](CC(=O)O)NC(=O)[C@H](Cc2ccc(O)cc2)NC(=O)[C@H](CC(N)=O)NC(=O)CSC[C@@H](C(=O)N[C@@H](C)C(N)=O)NC(=O)[C@H]([C@@H](C)O)NC(=O)[C@H](C(C)C)NC1=O [Compound 1037] ({CH2CO}-NYDWV[Bip]VL[dL][Dab]LVTCA-NH2; thioether N-14): 7.27
